System: BRSK1
Settings: concentration: 1 μM, replicates: in singlicate; n = 1;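 further: KINOMEscan kinase panel screen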
Measured %Inh, listed per entry.
Value expressed in %; do not type the unit.

molecule: CN1c2ccc(NCc3ccc(F)cc3)cc2-c2c(cnn2C)S1(=O)=O
value: 0

The recorded %Inh with BRSK1 for O=c1cc(N2CCOCC2)nc2n(Cc3cccc(F)c3)ccn12 [GSK2297430] was 0

Test item Cc1cn2c(=O)cc(N3CCOCC3)nc2n1Cc1cccc(Cl)c1Cl [GSK2334006] ; BRSK1; reported %Inh was 14

Form field %Inh for item Fc1ccc(-c2ncn(CCCN3CCOCC3)c2-c2ccccn2)cc1 [SB-211742] on BRSK1: 6

----------
Tested on: ROCK1
Conditions: concentration: 1 μM, replicates: in singlicate; n = 1
Would you please tag the item yes (1) when its %Inh is 40% or above, and no (0) when it is below?

INPUT: Does the reported %Inh for COCCNC(=O)c1ccc(-c2cc(C(=O)NC3CC3)cc(F)c2C)cc1 fall at or above the 40% mark?
OUTPUT: no (0)

INPUT: Decide: %Inh of COc1cc2c(cc1OC[C@@H](O)CO)ncc1c3ccc(C#N)cc3[nH]c21 >= 40%?
OUTPUT: yes (1)

INPUT: Please check the record NS(=O)(=O)c1cccc(-c2ccc3ncc(N4CCOCC4)nc3c2)c1 and state if its %Inh is at or above 40%.
OUTPUT: no (0)

INPUT: Please check the record c1ccc(-c2cc(-c3c[nH]nc3-c3ccccn3)ccn2)cc1 and state if its %Inh is at or above 40%.
OUTPUT: no (0)

INPUT: Would you say CCc1ccnc(/C=C/c2n[nH]c3cc(Sc4ccccc4C(=O)NC)ccc23)c1 shows %Inh at minimum 40%?
OUTPUT: no (0)

INPUT: # bool: %Inh of COc1ccc(Nc2nccc(N3CCC(NC(=O)Nc4cc(C)ccc4C)C3)n2)cc1 (stereo not shown) >= 40%
OUTPUT: no (0)

----------
Reported %Inh values for a set of compounds
Test system: CHEK1
Details: concentration: 1 μM, replicates: in singlicate; n = 1
Respond numerically; units are % and should not be typed.

Example compounds with recorded %Inh:
compound: Fc1ccc(-c2ncn(CCCN3CCOCC3)c2-c2ccccn2)cc1
%Inh / %: 0

compound: O=C(NCCNc1ccnc(Nc2ccc(F)cc2)n1)c1cc2ccccc2s1
%Inh / %: 2

compound: O=C(NCCCN1CCOCC1)c1cccc(Nc2nccc(Nc3ccc(Oc4ccccc4)cc3)n2)c1
%Inh / %: 9

According to the records, this compound CCCCCc1nc2c(N)ncnc2n1CCCCC displays %Inh of 0

Summary for this compound, NS(=O)(=O)c1cccc(-c2ccc3nccc(-c4cccc(S(N)(=O)=O)c4)c3c2)c1 : %Inh is 0

Sure, the documented %Inh for COc1ccc(Nc2nccc(N3CCC(NC(=O)Nc4cccc(C(C)=O)c4)C3)n2)cc1 (centres unmarked) is 0

Field %Inh (entry COc1cc(Nc2nccc(N3CCC(NC(=O)c4cccc(NC(C)=O)c4)C3)n2)cc(OC)c1OC (centres unmarked) ) reads 0

----------
// %Inh lookup, one value per entry
Test system: TSSK1B
Details: concentration: 1 μM, replicates: in singlicate; n = 1
Express it in %; write the number only.

compound: COc1cc2c(cc1OCCN1CCN(C)CC1)ncc1c3ccc(C#N)cc3[nH]c21
%Inh (%): 34

compound: CCCCCc1nc2c(N)ncnc2n1CCCCC
%Inh (%): 0

compound: COc1ccc(Nc2nccc(N3CCC(NC(=O)Nc4cc(C)ccc4C)C3)n2)cc1 (stereo not shown)
%Inh (%): 13

compound: O=c1cc(N2CCOCC2)nc2n(Cc3cccc(C(F)(F)F)c3)ccn12
%Inh (%): 16

compound: O=C(NCCNc1ccnc(Nc2ccc(F)cc2)n1)c1cc2ccccc2s1
%Inh (%): 0

Observed %Inh, TSSK1B, NS(=O)(=O)c1cccc(-c2ccc3ncc(N4CCOCC4)nc3c2)c1 : 0

Nc1nc(-c2ccc3c(N)n[nH]c3c2)cc(N2CCCC2)n1 tested on TSSK1B gave %Inh: 0

Given the compound O=C(Nc1n[nH]c2cc(-c3cccc(F)c3)ccc12)C1CC1 and test system TSSK1B, the measured %Inh is 0

Log: TSSK1B, compound c1ccc(-c2cc(-c3c[nH]nc3-c3ccccn3)ccn2)cc1 , %Inh = 3

Measured on TSSK1B, CC(C)(C)n1cnc2c(N)ncnc21 has a documented %Inh of 0
